Target: UniProt:P30542
Sequence (P30542 whole entry): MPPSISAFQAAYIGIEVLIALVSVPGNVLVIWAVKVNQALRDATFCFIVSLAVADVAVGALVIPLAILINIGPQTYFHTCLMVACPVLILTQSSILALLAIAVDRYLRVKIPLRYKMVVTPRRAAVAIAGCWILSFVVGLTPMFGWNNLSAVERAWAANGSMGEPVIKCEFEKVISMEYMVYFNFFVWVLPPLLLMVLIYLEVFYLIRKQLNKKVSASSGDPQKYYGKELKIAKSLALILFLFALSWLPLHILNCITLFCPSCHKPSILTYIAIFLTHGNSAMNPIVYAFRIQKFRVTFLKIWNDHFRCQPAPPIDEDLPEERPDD
# Ki values compiled below

{"molecule smiles": "CCSc1cccc2[nH]c(-c3cnc4ccccc4n3)nc12", "op": "=", "Ki (µM)": 0.0005}
{"molecule smiles": "COc1ccc2nc(-c3cnc4ccccc4n3)[nH]c2c1", "op": ">", "Ki (µM)": 10}
{"molecule smiles": "Cc1ccc2[nH]c(-c3cnc4ccccc4n3)nc2c1", "op": ">", "Ki (µM)": 10}
{"molecule smiles": "c1ccc(-c2nnc(-c3ccccn3)[nH]2)nc1", "op": ">", "Ki (µM)": 10}
{"molecule smiles": "c1ccc2nc(-c3nc4ccccc4[nH]3)cnc2c1", "op": "=", "Ki (µM)": 0.05}
{"molecule smiles": "CCc1nc2c([nH]1)c1nc(CC)[nH]c1c1nc(CC)[nH]c21", "op": "=", "Ki (µM)": 0.046}
{"molecule smiles": "Oc1c2nnnc-2nc2n1CCS2", "op": ">", "Ki (µM)": 10}
{"molecule smiles": "Clc1cccc2nc(-c3cnc4ccccc4n3)[nH]c12", "op": "=", "Ki (µM)": 0.35}
{"molecule smiles": "CCc1nc2c3[nH]c(C)nc3c3nc(C)[nH]c3c2[nH]1", "op": "=", "Ki (µM)": 0.496}
{"molecule smiles": "c1c[nH]c2nc(-c3cnc4ccccc4n3)nc-2c1", "op": ">", "Ki (µM)": 10}
{"molecule smiles": "CSc1cccc2nc(-c3cnc4ccccc4n3)[nH]c12", "op": "=", "Ki (µM)": 0.0021}
{"molecule smiles": "Clc1ccc2[nH]c(-c3cnc4ccccc4n3)nc2c1", "op": ">", "Ki (µM)": 10}

Attribution: ChEMBL document CHEMBL1141186
